Values compiled from patent US20110230481A2.

- TESTED_TARGET: CK2α (Homo sapiens)
- Sequence (P68400 whole entry): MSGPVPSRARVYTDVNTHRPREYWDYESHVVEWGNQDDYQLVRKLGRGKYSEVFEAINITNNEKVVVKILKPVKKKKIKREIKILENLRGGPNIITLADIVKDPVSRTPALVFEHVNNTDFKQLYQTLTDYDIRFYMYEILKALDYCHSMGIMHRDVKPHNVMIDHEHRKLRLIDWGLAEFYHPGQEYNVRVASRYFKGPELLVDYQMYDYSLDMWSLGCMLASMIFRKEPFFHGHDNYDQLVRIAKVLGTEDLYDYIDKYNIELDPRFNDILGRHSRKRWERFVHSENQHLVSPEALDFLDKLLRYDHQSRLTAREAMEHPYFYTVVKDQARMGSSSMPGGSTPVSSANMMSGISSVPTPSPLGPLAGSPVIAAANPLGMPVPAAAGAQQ
- ASSAY_EXPLANATION: Radiometric kinase assay (HotSpot)
READOUT_NAME: log10(IC50) (log10 of the value in nM)
// units: nM (pre-log); metric: IC50; scale: log10

COMPOUND	log10(IC50)
Brc1c(Br)c(Br)c2[nH]c(NCCCN3CCCCC3)nc2c1Br [Compound 59]	2.93
Nc1ccc(Nc2nc3c(Br)c(Br)c(Br)c(Br)c3[nH]2)cc1 [Compound 86]	2.87
NCCCCNc1nc2c(Br)c(Br)c(Br)c(Br)c2[nH]1 [Compound 61]	2.59
NCC(O)CNc1nc2c(Br)c(Br)c(Br)c(Br)c2[nH]1 (stereo not drawn) [Compound 90]	2.04
Brc1c(Br)c(Br)c2[nH]c(Nc3ccccc3)nc2c1Br [Compound 79]	3.29

Assay CK2α (Homo sapiens), sample NCCCNc1nc2c(Br)c(Br)c(Br)c(Br)c2[nH]1 [Compound 11] , log10(IC50) read: 3.01

* * *

- TESTED_TARGET: UniProt P11309
- Sequence (P11309 whole entry): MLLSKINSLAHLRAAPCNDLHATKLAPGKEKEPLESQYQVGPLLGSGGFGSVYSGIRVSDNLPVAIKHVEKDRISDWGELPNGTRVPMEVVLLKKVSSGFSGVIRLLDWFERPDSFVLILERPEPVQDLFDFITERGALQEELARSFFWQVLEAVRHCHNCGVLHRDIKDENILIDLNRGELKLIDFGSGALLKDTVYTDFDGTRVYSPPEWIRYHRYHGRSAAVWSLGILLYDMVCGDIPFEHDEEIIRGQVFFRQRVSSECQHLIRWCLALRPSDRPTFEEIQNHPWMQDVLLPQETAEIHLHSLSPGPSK
- ASSAY_EXPLANATION: Radiometric kinase assay (HotSpot)
READOUT_NAME: pIC50
When answering, recall that pIC50 equals minus log10 of the concentration in mol/L, and write that number alone.

For this compound ( Brc1c(Br)c(Br)c2[nH]c(NCCN3CCCC3)nc2c1Br ), measured pIC50 is 7.36

compound Brc1c(Br)c(Br)c2[nH]c(N3CCNCC3)nc2c1Br , pIC50 observed: 7.11

Just so you know, measured pIC50 for Nc1ccc(Nc2nc3c(Br)c(Br)c(Br)c(Br)c3[nH]2)cc1 came out at 6.26

* * *

- TESTED_TARGET: PIM2 (Homo sapiens, UniProt Q9P1W9)
- Sequence (Q9P1W9 whole entry): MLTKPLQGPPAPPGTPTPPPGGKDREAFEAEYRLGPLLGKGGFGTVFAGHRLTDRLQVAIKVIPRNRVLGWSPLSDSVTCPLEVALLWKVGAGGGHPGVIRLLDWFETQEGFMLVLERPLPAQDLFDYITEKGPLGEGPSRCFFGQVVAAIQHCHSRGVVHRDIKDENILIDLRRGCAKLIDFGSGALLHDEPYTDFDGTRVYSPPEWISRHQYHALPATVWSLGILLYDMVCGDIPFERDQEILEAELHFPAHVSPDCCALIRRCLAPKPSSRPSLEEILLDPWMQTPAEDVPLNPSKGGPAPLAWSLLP
- ASSAY_EXPLANATION: Radiometric kinase assay (HotSpot)
- CONDITION_DETAILS: ratio of IC50 values
Known Selectivity for Pim-2 over CK2α of a selection of molecules
Simply state the number, no unit and no words.

MOLECULE	TESTED_TARGET	Selectivity for Pim-2 over CK2α
Brc1c(Br)c(Br)c2[nH]c(NCCCn3ccnc3)nc2c1Br [Compound 65]	PIM2 (Homo sapiens, UniProt Q9P1W9)	0.5
Nc1ccc(Nc2nc3c(Br)c(Br)c(Br)c(Br)c3[nH]2)cc1 [Compound 86]	PIM2 (Homo sapiens, UniProt Q9P1W9)	0.5
NCC(O)CNc1nc2c(Br)c(Br)c(Br)c(Br)c2[nH]1 (stereo not shown) [Compound 90]	PIM2 (Homo sapiens, UniProt Q9P1W9)	1.2
Brc1c(Br)c(Br)c2[nH]c(NCCN3CCCCC3)nc2c1Br [Compound 13]	PIM2 (Homo sapiens, UniProt Q9P1W9)	2.5
CN1CCN(c2nc3c(Br)c(Br)c(Br)c(Br)c3[nH]2)CC1 [Compound 21]	PIM2 (Homo sapiens, UniProt Q9P1W9)	1.1
Brc1c(Br)c(Br)c2[nH]c(NCCCN3CCCCC3)nc2c1Br [Compound 59]	PIM2 (Homo sapiens, UniProt Q9P1W9)	0.6

Known value: PIM2 (Homo sapiens, UniProt Q9P1W9) Selectivity for Pim-2 over CK2α of the molecule NCCCNc1nc2c(Br)c(Br)c(Br)c(Br)c2[nH]1 [Compound 11] equals 10.3

So the reported Selectivity for Pim-2 over CK2α for Brc1c(Br)c(Br)c2[nH]c(N3CCNCC3)nc2c1Br [Compound 20] , on PIM2 (Homo sapiens, UniProt Q9P1W9), turned out to be 0.4

Observed Selectivity for Pim-2 over CK2α, PIM2 (Homo sapiens, UniProt Q9P1W9), Brc1c(Br)c(Br)c2[nH]c(NCCN3CCCC3)nc2c1Br [Compound 14] : 1.3

For NCCCCNc1nc2c(Br)c(Br)c(Br)c(Br)c2[nH]1 [Compound 61] on PIM2 (Homo sapiens, UniProt Q9P1W9), measured Selectivity for Pim-2 over CK2α was 1.9

Test item Brc1c(Br)c(Br)c2c(Br)n[nH]c2c1Br [Compound K64, reference compound] ; PIM2 (Homo sapiens, UniProt Q9P1W9); reported Selectivity for Pim-2 over CK2α was 0.7

Field Selectivity for Pim-2 over CK2α (PIM2 (Homo sapiens, UniProt Q9P1W9)), entry CN(C)c1nc2c(Br)c(Br)c(Br)c(Br)c2n1CC(=O)O [Compound K66, reference compound] : 0.2

Summary line: Brc1c(Br)c(Br)c2[nH]c(NCCN3CCOCC3)nc2c1Br [Compound 16] , PIM2 (Homo sapiens, UniProt Q9P1W9), reported Selectivity for Pim-2 over CK2α = 2.3
